- TESTED SYSTEM: Protein tyrosine phosphatase 1B (PTP1B, human recombinant) (Homo sapiens, UniProt P18031)
- Sequence (P18031 1-435): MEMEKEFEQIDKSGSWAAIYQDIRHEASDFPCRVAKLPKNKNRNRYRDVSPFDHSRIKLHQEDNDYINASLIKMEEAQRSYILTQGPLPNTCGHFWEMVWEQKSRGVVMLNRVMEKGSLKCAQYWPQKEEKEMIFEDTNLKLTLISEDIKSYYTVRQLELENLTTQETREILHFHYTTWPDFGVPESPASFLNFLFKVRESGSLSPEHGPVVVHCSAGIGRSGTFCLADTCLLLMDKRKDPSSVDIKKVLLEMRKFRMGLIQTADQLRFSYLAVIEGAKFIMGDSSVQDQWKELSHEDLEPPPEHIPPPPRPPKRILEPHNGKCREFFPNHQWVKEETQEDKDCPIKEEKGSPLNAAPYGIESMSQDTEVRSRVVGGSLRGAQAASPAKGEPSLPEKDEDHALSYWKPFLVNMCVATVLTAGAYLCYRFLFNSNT
- ASSAY DETAILS: PTP1B inhibitory assay (inhibition of pNPP hydrolysis catalyzed by PTP1B)
- Description: Ethylenediaminetetraacetic acid, p-nitrophenyl phosphate (pNPP), and dimethylsulfoxide were purchased from Sigma-Aldrich Co. (St. Louis, MO, USA). Protein tyrosine phosphatase 1B (PTP1B, human recombinant) and dithiothreitol (DTT) were purchased from Biomol® International LP (Plymouth Meeting, PA, USA) and Bio-Rad Laboratories (Hercules, CA, USA), respectively. All chemicals and solvents used in the isolation and enzyme assays were of reagent grade and were purchased from commercial sources. […]
Could you mark each record rule met if its IC50 falls strictly under 10 µM, and rule not met if it equals or exceeds it?

hey, is IC50 for C[C@@]12C=C(c3c(O)cc(-c4cc5ccc(O)cc5o4)cc3O)C[C@@H](C1)c1ccc(O)cc1O2 lower than 10 µM or not?
rule not met

I wonder whether CC(C)=CCC/C(C)=C/Cc1c(O)ccc2cc(-c3cc(O)cc(O)c3CC=C(C)C)oc12 has IC50 below 10 µM. Can you tell?
rule not met

Just wondering, is IC50 of CC(C)=CCC/C(C)=C/CC/C(C)=C\Cc1c(O)cc(O)c(CC=C(C)C)c1-c1cc2ccc(O)cc2o1 below 10 µM?
rule not met

Please determine if COc1cc(O)cc(-c2cc3ccc(O)c(C/C=C(\C)CCC=C(C)C)c3o2)c1CC=C(C)C is below 10 µM in terms of IC50.
rule not met

Consider the compound CC(C)=CCCC1(C)C=Cc2c(ccc3cc(-c4cc(O)cc(O)c4CC=C(C)C)oc23)O1 (centres unmarked) [MD2, mulberrofuran D2] . Is its IC50 strictly less than 10 µM?
rule met

* * *

- TESTED SYSTEM: Protein tyrosine phosphatase 1B (PTP1B, human recombinant) (Homo sapiens)
- ASSAY DETAILS: Enzyme kinetic analysis (Lineweaver-Burk and Dixon plots)
- MEASUREMENT CONDITIONS: determined by Dixon plot
ENDPOINT LABEL: Ki (nM)
Numbers only; they are read as nM.

Lab note: need Ki with Protein tyrosine phosphatase 1B (PTP1B, human recombinant) (Homo sapiens) for entry CC(C)=CCCC1(C)C=Cc2c(ccc3cc(-c4cc(O)cc(O)c4CC=C(C)C)oc23)O1 (stereo not drawn) [MD2, mulberrofuran D2] , please look it up.
2630

What value of Ki on Protein tyrosine phosphatase 1B (PTP1B, human recombinant) (Homo sapiens) does CC(C)=CCC/C(C)=C/CC/C(C)=C\Cc1c(O)cc(O)c(CC=C(C)C)c1-c1cc2ccc(O)cc2o1 [MB, morusalfuran B] have?
2840

Query for Protein tyrosine phosphatase 1B (PTP1B, human recombinant) (Homo sapiens): what Ki does the record show for CC(C)=CCC/C(C)=C/Cc1c(O)ccc2cc(-c3cc(O)cc(O)c3CC=C(C)C)oc12 [MD, mulberrofuran D] ?
4790
